- TARGET DESC: UniProt:Q9Y463
- Sequence (Q9Y463 whole entry): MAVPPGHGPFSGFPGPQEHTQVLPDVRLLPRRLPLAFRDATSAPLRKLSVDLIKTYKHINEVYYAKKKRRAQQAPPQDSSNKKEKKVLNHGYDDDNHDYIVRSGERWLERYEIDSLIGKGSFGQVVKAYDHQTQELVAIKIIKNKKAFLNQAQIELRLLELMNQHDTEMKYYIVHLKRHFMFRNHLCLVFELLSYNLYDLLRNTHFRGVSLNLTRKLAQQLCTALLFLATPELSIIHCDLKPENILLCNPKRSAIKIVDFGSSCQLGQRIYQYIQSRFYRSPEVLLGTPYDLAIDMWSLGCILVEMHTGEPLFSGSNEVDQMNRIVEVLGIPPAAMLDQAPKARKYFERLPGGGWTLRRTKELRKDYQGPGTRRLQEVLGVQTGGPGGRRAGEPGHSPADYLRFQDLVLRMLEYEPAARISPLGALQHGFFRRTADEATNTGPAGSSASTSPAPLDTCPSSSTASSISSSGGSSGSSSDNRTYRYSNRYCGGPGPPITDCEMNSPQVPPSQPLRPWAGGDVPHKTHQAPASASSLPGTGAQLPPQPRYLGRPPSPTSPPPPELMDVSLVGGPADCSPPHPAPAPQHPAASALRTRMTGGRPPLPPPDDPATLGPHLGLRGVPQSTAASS
- ASSAY TEXT: In vitro kinase assay, substrate DYRKtide-F
- EXPERIMENTAL SETUP: 50 μM ATP, 1 μM DYRKtide-F
MEASUREMENT TYPE: pIC50
Worth noting: pIC50 values are minus log10 of concentrations stated in mol/L.

Enquiry: Indicate its recorded pIC50; the compound in question is [H]/N=C1/NC(=O)C(=Cc2ccc3c(c2)CCO3)S1
Return: 7.62

====

- TARGET DESC: GST-tagged human DYRK1A (Homo sapiens)
MEASUREMENT TYPE: pKi
Worth noting: pKi values are minus log10 of concentrations stated in mol/L.

Enquiry: Please respond with reported pKi (system GST-tagged human DYRK1A (Homo sapiens)) for [H]/N=C1/NC(=O)C(=Cc2ccc3c(c2)CCO3)S1 [CaNDY] .
Return: 8.72
